Hi there, I'd appreciate the recorded IC50 for every entry that follows.
molecular target: Muscarinic acetylcholine receptor M1 (Rattus norvegicus); assay: In vitro binding affinity against muscarinic acetylcholine receptor M1 from rat hippocampus, using [3H]pirenzepine (Pz) as radioligand; assay type: tissue-based
Sequence (P08482 whole entry): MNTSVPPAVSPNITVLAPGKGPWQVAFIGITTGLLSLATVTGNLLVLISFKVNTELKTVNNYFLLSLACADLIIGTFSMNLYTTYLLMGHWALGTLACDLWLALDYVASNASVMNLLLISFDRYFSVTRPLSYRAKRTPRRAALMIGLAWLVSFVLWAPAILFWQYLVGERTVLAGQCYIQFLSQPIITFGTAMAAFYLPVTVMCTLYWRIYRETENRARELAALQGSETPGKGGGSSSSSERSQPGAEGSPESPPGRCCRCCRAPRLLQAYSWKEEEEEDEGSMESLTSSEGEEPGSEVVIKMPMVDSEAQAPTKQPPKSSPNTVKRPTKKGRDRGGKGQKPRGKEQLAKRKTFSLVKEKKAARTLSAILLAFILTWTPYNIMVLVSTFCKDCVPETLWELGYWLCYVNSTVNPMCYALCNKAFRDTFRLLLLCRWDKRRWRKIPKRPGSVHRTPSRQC
Answer format: numeric, µM implied, no suffix.

What measured IC50 goes with `CCSc1nsnc1C1=CCCN(C)C1.O=C(O)C(=O)O` ?
0.018

Consider next the molecule `C[N+](C)(C)CC#CCOC(=O)Nc1cccc(Cl)c1.[Cl-]` in the same way.
0.955

Consider next the molecule `CCCCCCS(=O)(=O)c1nsnc1C1=CCCN(C)C1` in the same way.
0.062

Consider next the molecule `CCCCOc1nonc1C1=CCCN(C)C1` in the same way.
0.345

Consider next the molecule CCCC(C)COc1nsnc1C1=CCCN(C)C1.O=C(O)/C=C/C(=O)O (stereo not given) in the same way.
0.009

Consider next the molecule `CCCSc1nsnc1C1=CCCN(C)C1.O=C(O)C(=O)O` in the same way.
0.004

Consider next the molecule `CCCCCCCSc1nsnc1C1=CCCN(C)C1.O=C(O)C(=O)O` in the same way.
0.012

Consider next the molecule `CCOc1nsnc1C1=CCCN(C)C1.O=C(O)C(=O)O` in the same way.
0.048

Consider next the molecule `CCCCSc1nsnc1C1=CCCN(C)C1.O=C(O)C(=O)O` in the same way.
0.0013

Consider next the molecule `CCCCCCNc1nsnc1C1=CCCN(C)C1` in the same way.
0.105

Consider next the molecule `CCCCCCOc1nonc1C1=CCCN(C)C1` in the same way.
0.277

Consider next the molecule `CCCCCCCCOc1nsnc1C1=CCCN(C)C1.O=C(O)C(=O)O` in the same way.
0.04

Consider next the molecule CCCCC(C)Oc1nsnc1C1=CCCN(C)C1.O=C(O)/C=C/C(=O)O (stereo not given) in the same way.
0.0069

Consider next the molecule `CSc1nsnc1C1=CCCN(C)C1.O=C(O)C(=O)O` in the same way.
0.043

Consider next the molecule `CC(C)CCCOc1nsnc1C1=CCCN(C)C1.O=C(O)/C=C\C(=O)O` in the same way.
0.0097

Consider next the molecule `CN1CCC=C(c2cnsn2)C1` in the same way.
0.145

Consider next the molecule CCC(C)CCOc1nsnc1C1=CCCN(C)C1.O=C(O)/C=C/C(=O)O (stereo not given) in the same way.
0.0084

Consider next the molecule `CCCOc1nsnc1C1=CCCN(C)C1.O=C(O)C(=O)O` in the same way.
0.018

Consider next the molecule CCCCCC[S+]([O-])c1nsnc1C1=CCCN(C)C1 (stereo not given) in the same way.
0.86

Consider next the molecule `COc1nsnc1C1=CCCN(C)C1.O=C(O)C(=O)O` in the same way.
0.148
